Assay: Bioanalytical assessment of plasma and brain concentrations after rat DC-MES assay
Format: in vivo
Details: rat, brain, po, 1 mg/kg, sheet Figure 5G, 5H, 5I (rats), 1 mg/kg PO single dose, 2 hr; read-out: Mean [Brain]
endpoint: concentration at 2 h (nM)
Write the number in nM without appending the unit.

Return value of concentration at 2 h for input Cc1cc(S(=O)(=O)Nc2cscn2)c(F)cc1N(C)[C@H]1CCN(Cc2ccccc2)C1 [NBI-921352] , no commentary. 16.6

---

Assay: Bioanalytical assessment of plasma and brain concentrations after 6 Hz assay
Assay type: in vivo, mouse
Conditions: Scn8a^N1768D/+, mouse, in vivo, 10 mg/kg, Study18028, 10 mg/kg, SCN8A mouse 6HZ; read-out: Mean [Palsma]
endpoint: concentration at 2 h (µM)
Write the number in µM without appending the unit.

Return value of concentration at 2 h for input COC[C@@H](NC(C)=O)C(=O)NCc1ccccc1 [lacosamide, Lacosamide, reference compound] , no commentary. 11.8
